Just for reference, patent US20130089544A1 is where these values come from.

- Measurement Target: T1, human ErbB2 ECD-myc/His fusion protein (human, UniProt P04626 23-652)
- T1 construct: Made in-house in 293T cells; also called hErbB2(ECD)/cMyc-His; huErbB2 (ECD)/c-myc-His; not shown: c-myc/His tag of the pSecTag2Hygro vector
- Assay Name: SPR, Biacore 2000 medium resolution; mAb captured on goat anti-human IgG, ErbB2(ECD)-cMyc/His injected; 1:1 fit
Outcome Measure: kon (M⁻¹ s⁻¹)
Supply the numeric figure in M⁻¹ s⁻¹, leaving out any unit text.

Could you share which kon value was measured for monoclonal antibody 1.96 (antibody, V domains shown, Fully human IgG (gamma/kappa) from a XenoMouse XM3B-3 hybridoma; constant regions not tied to it) VH: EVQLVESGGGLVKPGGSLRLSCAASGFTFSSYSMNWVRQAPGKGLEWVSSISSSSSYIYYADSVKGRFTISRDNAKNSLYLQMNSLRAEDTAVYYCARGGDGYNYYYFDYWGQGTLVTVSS VL: DIVMTQSPDSLAVSLGERATITCKSSQSVFFRSNNKNCLAWYQQRPGQPPNLLFYWASTRESGVPDRFSGSGSGTDFTLTISSLQAEDVAVYYCQQYFGSPFTLGPGTKVDIK ?
103000

Could you share which kon value was measured for monoclonal antibody 1.18.1 (antibody, V domains shown, Fully human IgG (gamma/kappa) from a XenoMouse XM3B-3 hybridoma; constant regions not tied to it) VH: EVQLVESGGGLVKPGGSLRLSCAASGFTFSSYSMNWVRQAPGKGLEWVSSISSSSSYIYYADSVKGRFTISRDNAKNSLYLQMNSLSAEDTAVYSCARGGDGYNYYYFDYWGQGTLVTVSS VL: DIVMTQSPGSLVVSLGERATITCKSSQSVFFRSNNKNCLAWYQQRPGQSPNLLIYWASTRESGVPDRFSGSGSGTDFTLTISSLQAEDVAVYYCQQYFGSPFTFGPGTKVDIK ?
100000

Could you share which kon value was measured for monoclonal antibody 1.39 (antibody, V domains shown, Fully human IgG (gamma/kappa) from a XenoMouse XM3B-3 hybridoma; constant regions not tied to it; also called 1.39.1; 1.39.2) VH: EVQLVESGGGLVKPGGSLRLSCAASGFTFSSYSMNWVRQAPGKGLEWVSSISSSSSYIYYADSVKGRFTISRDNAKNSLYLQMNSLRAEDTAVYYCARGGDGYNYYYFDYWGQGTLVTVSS VL: DIVMTQSPDSLAVSLGERATITCKSSQSVFFRSNNKNCLAWYQQRPGQPPNLLIYWASSRESGVPDRFSGSGSGTDFALTISSLQTEDVAVYYCQQYFGSPFTFGPGTKVDIK ?
115000

Could you share which kon value was measured for monoclonal antibody 1.14.1 (antibody, V domains shown, Fully human IgG (gamma/kappa) from a XenoMouse XM3B-3 hybridoma; constant regions not tied to it) VH: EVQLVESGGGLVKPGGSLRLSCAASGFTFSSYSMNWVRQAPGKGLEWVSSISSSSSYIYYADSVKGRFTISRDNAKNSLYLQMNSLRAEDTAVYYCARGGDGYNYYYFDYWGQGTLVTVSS VL: DIVMTQSPDSLAVSLGERATITCKSSQSVFFRSNNKNCLTWYQQRPGQPPNLLIYWASTRESGVPDRFSGSGSGTDFTLTINNLQAEDVAVYYCQQYFGSPFTFGPGTKVDIK ?
102000

Could you share which kon value was measured for monoclonal antibody 1.100.1 (antibody, V domains shown, Fully human IgG (gamma/kappa) from a XenoMouse XM3B-3 hybridoma; constant regions not tied to it; also called 1.100.2; 1.100.3) VH: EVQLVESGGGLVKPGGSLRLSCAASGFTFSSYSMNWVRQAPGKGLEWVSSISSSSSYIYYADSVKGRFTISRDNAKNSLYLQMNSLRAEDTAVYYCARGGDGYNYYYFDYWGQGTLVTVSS VL: DIVMTQSPDSLAVSLGERATITCKSSQSVFFRSNNKNCLAWYQQRPGQPPNLLIYWASTRESGVPDRFSGSGCGTDFTLTISSLQAEDVAVYYCQQYFGSPFTFGPGTKVDIK ?
104000

Could you share which kon value was measured for monoclonal antibody 1.20 (antibody, V domains shown, Fully human IgG (gamma/kappa) from a XenoMouse XM3B-3 hybridoma; constant regions not tied to it; also called 1.20.1; 1.19) VH: EVQLVESGGGLVKPGGSLRLSCAASGFTFSSYTMNWVRQAPGKGLEWVSSISSSSSYIYYADSVKGRFTISRDNAKNSLYLQMNSLSAEDTAVYSCARGGDGYNYYYFDYWGQGTLVTVSS VL: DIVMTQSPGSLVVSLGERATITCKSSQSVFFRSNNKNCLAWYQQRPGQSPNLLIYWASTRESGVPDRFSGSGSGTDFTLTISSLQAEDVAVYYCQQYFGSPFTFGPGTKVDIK ?
95000
